Values compiled from patent US20170037028A1.

measured-on: GLUT1 (Homo sapiens, UniProt P11166)
Sequence (P11166 whole entry, species assumed): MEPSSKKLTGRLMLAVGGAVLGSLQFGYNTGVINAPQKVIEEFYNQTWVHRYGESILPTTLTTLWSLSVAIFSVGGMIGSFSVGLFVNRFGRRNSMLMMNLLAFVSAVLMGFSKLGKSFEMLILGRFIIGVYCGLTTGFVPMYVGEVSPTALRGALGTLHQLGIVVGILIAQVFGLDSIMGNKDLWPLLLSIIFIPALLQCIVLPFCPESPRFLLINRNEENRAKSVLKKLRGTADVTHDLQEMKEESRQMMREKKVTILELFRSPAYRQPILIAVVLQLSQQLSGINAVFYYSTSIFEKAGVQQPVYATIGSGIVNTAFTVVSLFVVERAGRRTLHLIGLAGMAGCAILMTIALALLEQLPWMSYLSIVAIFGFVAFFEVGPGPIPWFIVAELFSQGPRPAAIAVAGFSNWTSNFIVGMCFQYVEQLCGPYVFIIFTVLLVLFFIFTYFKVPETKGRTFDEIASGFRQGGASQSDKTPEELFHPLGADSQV
experiment-summary: Indirect measurement of GLUT1 activity by quantification of intracellular ATP levels (glucose induced ATP increase)
Assay type: cell-based
Design: endogenous in cells; host or cells: DLD1 or CHO-K1
experimental-setup: read-out: IC50 regarding glucose induced ATP increase (GLUT1 inhibition)
reported-endpoint: IC50 (nM)

Exercise: What does the data say about its IC50? Entry: Cc1nn(Cc2ccc(C(=O)Nc3ccccc3)cn2)c(C)c1NC(=O)c1cc(C(F)(F)F)nc2ccc(Br)cc12
Solution: 8.6

Exercise: How about CCc1ccc(Cn2nc(C(F)(F)F)c(NC(=O)c3cc(C(N)=O)nc4ccccc34)c2C)cc1 ?
Solution: 1.1

Exercise: How about Cc1nn(Cc2ccc(F)cc2)c(C)c1NC(=O)c1cc(C(F)(F)F)nc2ccc(N)cc12 ?
Solution: 59.7

Exercise: How about Cc1nn(Cc2cccc(C(F)(F)F)c2)c(C)c1NC(=O)c1cc(C(F)(F)F)nc2ccc(Br)cc12 ?
Solution: 11100

Exercise: How about COc1cccc(Cn2nc(C)c(NC(=O)c3cc(C(N)=O)nc4cc(F)c(Cl)cc34)c2C)c1 ?
Solution: 1.4

1. CCc1nn(Cc2ccc(F)cc2)c(CC)c1NC(=O)c1cc(C(N)=O)nc2ccccc12
2. COc1ccc(Cn2nc(C)c(NC(=O)c3cc(C(N)=O)nc4ccc(F)cc34)c2C)cc1
3. Cc1nn(Cc2ccc(C(=O)N(CCO)CCO)cc2)c(C)c1NC(=O)c1cc(C(F)(F)F)nc2ccc(Br)cc12
4. Cc1nn(Cc2ccc(C(=O)NC3CCCC3)cc2)c(C)c1NC(=O)c1cc(C(F)(F)F)nc2ccc(Br)cc12
Exercise: Your job: order these 4 records by IC50, ascending. # format: label list in the order the request specifies
Solution: 2, 1, 3, 4

###

measured-on: GLUT1 (Homo sapiens)
experiment-summary: Indirect measurement of GLUT1 activity by quantification of intracellular ATP levels (glucose induced ATP increase)
Assay type: cell-based
Parameters: endogenous in cells; host or cells: DLD1 or CHO-K1
experimental-setup: read-out: IC50 regarding glucose induced ATP increase (GLUT1 inhibition)
pIC50: −log10 of the molar value.
reported-endpoint: pIC50

Answered cases to consult:
Exercise: What does the data say about its pIC50? Entry: Cc1nn(Cc2ccccc2C#N)c(C)c1NC(=O)c1cc(C(C)C)nc2ccc(Br)cc12
Solution: 9.30

Exercise: How about Cc1nn(Cc2ccccc2O)c(C)c1NC(=O)c1cc(C(F)(F)F)nc2c(Cl)cc(Cl)cc12 ?
Solution: 7.68

Exercise: How about Cc1nn(Cc2ccc(F)cc2)c(C)c1NC(=O)c1cc(C(F)(F)F)nc2ccc(Cl)cc12 ?
Solution: 7.94

Exercise: How about Cc1nn(Cc2ccc(C(=O)NCCN(CCO)CCO)cc2)c(C)c1NC(=O)c1cc(C(F)(F)F)nc2ccc(Br)cc12 ?
Solution: 7.18

1. COC(=O)N1CCC(Cn2nc(C)c(NC(=O)c3cc(C(N)=O)nc4ccccc34)c2C)CC1
2. COc1ccc(Cn2nc(C)c(NC(=O)c3cc(C(N)=O)nc4cc(F)c(Cl)cc34)c2C)cc1F
Exercise: Parameter check: reported pIC50 is higher for which label, 1 or 2 ? Mark your selection by writing its label.
Solution: 2
(2: 9.40, 1: 6.85)
